Target: NLRP3 (Homo sapiens)
Assay: Human whole blood IL1β release assay
Type: cell-based
Design: Plate out 80 μl of whole blood containing 1 μg/ml of LPS; from tissue; host or cells: human whole blood from healthy donors, LPS-primed, nigericin-stimulated
Settings: LPS 1 μg/ml, nigericin 10 μM, IL-1β AlphaLisa, read-out: HWB IC50
Description: For systemic delivery, the ability to inhibit NLRP3 when the compounds are present within the bloodstream is of great importance. For this reason, the NLRP3 inhibitory activity of a number of compounds in human whole blood was investigated in accordance with the following protocol. Human whole blood in Li-heparin tubes was obtained from healthy donors from a volunteer donor panel. • 1. […] IL-1β was measured according to the manufacturer protocol (Perkin Elmer-AlphaLisa IL-1 Kit AL220F-5000) • 8. […]
pIC50: −log10 of the molar value.
parameter: pIC50

>>> recorded_result("O=C(Nc1c2c(cc3c1CCC3)CCC2)NS(=O)(=O)c1ccn(CC2CCOC2)n1 (centres unmarked) [Example 6]")
"5.80 to 6.10"
>>> recorded_result("CCn1nc(S(=O)(=O)NC(=O)Nc2c3c(cc4c2CCC4)CCC3)cc1C1(OC)COC1 [Example 45]")
"> 6.40"
>>> recorded_result("CCN(CCO)C(=O)c1cc(S(=O)(=O)NC(=O)Nc2c3c(cc4c2CCC4)CCC3)nn1C [Example 66]")
"5.80 to 6.10"
>>> recorded_result("COc1cc(-c2ccc3c(c2NC(=O)NS(=O)(=O)c2ccn(C4CCOC4)n2)CCC3)ccn1 (centres unmarked) [Example 97]")
"> 6.40"
>>> recorded_result("C[C@@H](O)Cn1ccc(S(=O)(=O)NC(=O)Nc2c(-c3ccnc(C#N)c3)ccc3c2CCC3)n1 [Example 92]")
"> 6.40"
>>> recorded_result("CC(O)C(C)n1ccc(S(=O)(=O)NC(=O)Nc2c3c(cc4c2CCC4)CCC3)n1 (racemic) [Example 26]")
"> 6.40"
>>> recorded_result("COC1(c2cc(S(=O)(=O)NC(=O)Nc3c4c(cc5c3CCC5)CCC4)nn2C(C)C)COC1 [Example 42]")
"> 6.40"
>>> recorded_result("COc1cc(-c2cc(F)cc(C(C)C)c2NC(=O)NS(=O)(=O)c2cc(C3(OC)COC3)n(C)n2)ccn1 [Example 40]")
"> 6.40"

---

Assay: PK protocol (intravenous and oral administration)
Assay type: in vivo, male Sprague Dawley rats
Conditions: male, Sprague Dawley, plasma; rat, intravenous, dose 2.41 mg/kg; read-out: Vdss
Procedure: Pharmacokinetic parameters were determined in male Sprague Dawley rats (Charles River, UK, 250-350 g; or Vital River Laboratory Animal Technology Co Ltd, Beijing, China, 7-9 weeks old). Animals were individually housed during the study and maintained under a 12 h light/dark cycle. Animals had free access to food and water except that some orally dosed animals were food deprived overnight prior to the study. […]
parameter: Vd (L/kg)

>>> recorded_result("CN(CCO)C(=O)c1cc(S(=O)(=O)NC(=O)Nc2c3c(cc4c2CCC4)CCC3)nn1C")
2.37

---

Biological target: NLRP3 (Homo sapiens, UniProt Q96P20)
Sequence (Q96P20 whole entry): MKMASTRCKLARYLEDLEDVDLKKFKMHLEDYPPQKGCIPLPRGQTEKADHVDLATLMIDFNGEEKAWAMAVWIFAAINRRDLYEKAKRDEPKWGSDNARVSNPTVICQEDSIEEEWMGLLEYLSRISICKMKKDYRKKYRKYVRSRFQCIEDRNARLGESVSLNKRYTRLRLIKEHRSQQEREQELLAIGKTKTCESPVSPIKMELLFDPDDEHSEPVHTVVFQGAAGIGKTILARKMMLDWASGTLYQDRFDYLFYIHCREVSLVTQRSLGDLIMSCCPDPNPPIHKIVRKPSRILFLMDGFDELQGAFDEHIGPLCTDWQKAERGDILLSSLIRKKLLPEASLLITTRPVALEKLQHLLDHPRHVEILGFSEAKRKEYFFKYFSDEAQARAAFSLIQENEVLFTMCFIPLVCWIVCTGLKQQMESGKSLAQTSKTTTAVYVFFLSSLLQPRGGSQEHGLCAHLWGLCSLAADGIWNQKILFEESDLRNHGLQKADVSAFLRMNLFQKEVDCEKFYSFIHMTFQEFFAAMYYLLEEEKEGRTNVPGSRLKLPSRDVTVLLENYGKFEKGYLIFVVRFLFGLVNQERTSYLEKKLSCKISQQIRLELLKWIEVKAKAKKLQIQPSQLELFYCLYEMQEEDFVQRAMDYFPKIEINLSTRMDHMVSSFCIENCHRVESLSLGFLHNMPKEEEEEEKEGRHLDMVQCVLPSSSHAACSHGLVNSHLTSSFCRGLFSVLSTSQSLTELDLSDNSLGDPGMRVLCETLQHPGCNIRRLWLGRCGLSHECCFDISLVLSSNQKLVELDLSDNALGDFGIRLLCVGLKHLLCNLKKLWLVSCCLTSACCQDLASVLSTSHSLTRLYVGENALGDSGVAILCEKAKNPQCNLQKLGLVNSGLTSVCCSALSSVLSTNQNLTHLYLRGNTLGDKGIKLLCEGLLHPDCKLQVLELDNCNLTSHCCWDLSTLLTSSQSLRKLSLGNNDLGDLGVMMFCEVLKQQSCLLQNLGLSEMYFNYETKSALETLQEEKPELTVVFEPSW
Assay: Human whole blood IL1β release assay
Format: cell-based
Set-up: Plate out 80 μl of whole blood containing 1 μg/ml of LPS; from tissue; host or cells: human whole blood from healthy donors, LPS-primed, nigericin-stimulated
Settings: LPS 1 μg/ml, nigericin 10 μM, IL-1β AlphaLisa, read-out: HWB IC50
pIC50: −log10 of the molar value.
parameter: pIC50

>>> recorded_result("COC1(c2cc(S(=O)(=O)NC(=O)Nc3c4c(cc5c3CCC5)CCC4)nn2C)COC1")
"> 6.40"
>>> recorded_result("COc1cc(-c2ccc3c(c2NC(=O)NS(=O)(=O)c2ccn(C[C@@H](C)O)n2)CCC3)ccn1")
"> 6.40"
>>> recorded_result("COC1(c2cc(S(=O)(=O)NC(=O)Nc3c(-c4cccnc4)cc(F)c4c3CCC4)nn2C)COC1")
"5.80 to 6.10"
>>> recorded_result("O=C(Nc1c2c(cc3c1CCC3)CCC2)NS(=O)(=O)c1ccn(C[C@@H](O)CO)n1")
"5.80 to 6.10"
>>> recorded_result("COCCN(C)C(=O)c1cc(S(=O)(=O)NC(=O)Nc2c3c(cc4c2CCC4)CCC3)nn1C")
"6.10 to 6.40"
>>> recorded_result("Cn1nc(S(=O)(=O)NC(=O)Nc2c3c(cc4c2CCC4)CCC3)cc1C(=O)N(CCO)CCO")
"> 6.40"
>>> recorded_result("N#Cc1cc(-c2ccc3c(c2NC(=O)NS(=O)(=O)c2ccn(C4CCOC4)n2)CCC3)ccn1 (centres unmarked)")
"> 6.40"
>>> recorded_result("O=C(Nc1c2c(cc3c1CCC3)CCC2)NS(=O)(=O)c1ccn(C2COC2)n1")
"5.80 to 6.10"
>>> recorded_result("O=C(Nc1c2c(cc3c1CCC3)CCC2)NS(=O)(=O)c1ccn(C2CC(O)C2)n1 (centres unmarked)")
"5.80 to 6.10"
>>> recorded_result("O=C(Nc1c2c(cc3c1CCC3)CCC2)NS(=O)(=O)c1ccn(C2CCOCC2)n1")
"5.49 to 5.80"
>>> recorded_result("CC(C)c1cc(Cl)cc(C(C)C)c1NC(=O)NS(=O)(=O)c1ccn(CC(C)(C)O)n1")
"5.00 to 5.49"
